Where these numbers come from: ChEMBL document CHEMBL1133394

- Test system: NCI/ADR-RES
- PROCEDURE_TEXT: Tested in vitro for cytotoxicity against human tumor cell line MCF-7/ADR (breast)
- Assay type: functional
The threshold is 400 nM. Values of GI50 beneath it are tagged met; values meeting or exceeding it are tagged not met.

Would you please look over these solved cases?
• CCc1c2c(nc3ccc(O)cc13)-c1cc3c(c(=O)n1C2OCCF)COC(=O)[C@]3(O)CC (some centres undefined) = met
• CC[C@@]1(O)C(=O)OCc2c1cc1n(c2=O)C(OCCOC)c2cc3cc(O)ccc3nc2-1 (some centres undefined) = met
• CCc1c2c(nc3cccc(OC)c13)-c1cc3c(c(=O)n1C2OCCO)COC(=O)[C@]3(O)CC (some centres undefined) = not met

Attention now shifts to the item below.
INPUT: Does the reported GI50 of CCc1c2c(nc3cccc(OC)c13)-c1cc3c(c(=O)n1C2OCCOC)COC(=O)[C@]3(O)CC (some centres undefined) stay below 400 nM?
OUTPUT: not met

====

- Tested on: DU-145
- PROCEDURE_TEXT: Tested in vitro for cytotoxicity against human tumor cell line DU-145 (prostate)
- Format: functional
Criterion: GI50 strictly under 200 nM. Met: Met. Not met: Not met.

Example results:
* CCc1c2c(nc3ccc(O)cc13)-c1cc3c(c(=O)n1C2OCC(F)(F)F)COC(=O)[C@]3(O)CC (stereo partly drawn) | Not met
* CC[C@@]1(O)C(=O)OCc2c1cc1n(c2=O)C(OCCF)c2cc3cc(O)ccc3nc2-1 (stereo partly drawn) | Not met
* CC[C@@]1(O)C(=O)OCc2c1cc1n(c2=O)C(OCCOC)c2cc3cc(O)ccc3nc2-1 (stereo partly drawn) | Not met

INPUT: Say whether its GI50 is strictly beneath 200 nM. Entry: CC[C@@]1(O)C(=O)OCc2c1cc1n(c2=O)C(OCCF)c2cc3c([N+](=O)[O-])cccc3nc2-1 (stereo partly drawn)
OUTPUT: Not met

INPUT: Does CC[C@@]1(O)C(=O)OCc2c1cc1n(c2=O)C(OCCO)c2cc3cc(O)ccc3nc2-1 (stereo partly drawn) have GI50 strictly under 200 nM?
OUTPUT: Not met

INPUT: Here's an entry: CC[C@@]1(O)C(=O)OCc2c1cc1n(c2=O)C(OCC(F)(F)F)c2cc3c([N+](=O)[O-])cccc3nc2-1 (stereo partly drawn) . Is its GI50 below 200 nM?
OUTPUT: Met

INPUT: Given the entry CC[C@@]1(O)C(=O)OCc2c1cc1n(c2=O)C(OCC(F)(F)F)c2cc3cc(O)ccc3nc2-1 (stereo partly drawn) , would its reported GI50 be below 200 nM?
OUTPUT: Met

INPUT: Is the reported GI50 for CCc1c2c(nc3ccc(O)cc13)-c1cc3c(c(=O)n1C2OCCOC)COC(=O)[C@]3(O)CC (stereo partly drawn) strictly below 200 nM?
OUTPUT: Not met

====

- Tested on: NCI/ADR-RES
- PROCEDURE_TEXT: Tested in vitro for cytotoxicity against human tumor cell line MCF-7/ADR (breast)
- Format: functional
Quick list: GI50 per entry.
Response body: numeric value in nM, unit text excluded.

Worked cases, GI50 given:
• CCc1c2c(nc3ccc(O)cc13)-c1cc3c(c(=O)n1C2OCCOC)COC(=O)[C@]3(O)CC (some centres undefined) = 200
• CC[C@@]1(O)C(=O)OCc2c1cc1n(c2=O)C(OCCF)c2cc3cc(O)ccc3nc2-1 (some centres undefined) = 4000
• CC[C@@]1(O)C(=O)OCc2c1cc1n(c2=O)C(OCCF)c2cc3c([N+](=O)[O-])cccc3nc2-1 (some centres undefined) = 200

Let us examine a further case.
Lab book: GI50 of CC[C@@]1(O)C(=O)OCc2c1cc1n(c2=O)Cc2cc3c(CN(C)C)c(O)ccc3nc2-1 noted as 70
